These entries and their values trace back to the Kinase Knowledgebase extract (Sharma et al. 2016).

Target: MAPK14 (human)
Assay: In vitro Inhibition of TNF-alpha Production in PBMC Cells
IC50 under 100 nM gets T, anything at or over 100 nM gets F.

- molecule: "COC(=O)CN1CCN(c2c(-c3ccncc3)c(-c3ccc(F)cc3)c(C(=O)OC)n2C)CC1"
  discrete_label: "T"

QUERY: Is the reported IC50 for `CCn1c(C(=O)OC)c(-c2ccc(F)cc2)c(-c2ccncc2)c1N(C)CCN1CCOCC1` strictly below 100 nM?
RESULT: F

QUERY: Is the reported IC50 for CC(O)c1c(-c2ccc(F)cc2)c(-c2ccncc2)cn1C (configuration not stated) strictly below 100 nM?
RESULT: F

QUERY: Is the reported IC50 for `CON(C)C(=O)c1c(-c2ccc(F)cc2)c(-c2ccncc2)cn1C` strictly below 100 nM?
RESULT: F

QUERY: Is the reported IC50 for `COCC#Cc1c(-c2ccc(F)cc2)c(-c2ccncc2)c(C(=O)OC)n1C` strictly below 100 nM?
RESULT: F

QUERY: Is the reported IC50 for `COC(=O)c1c(-c2ccc(F)cc2)c(-c2ccncc2)c(Nc2ccc(N(C)C)cc2)n1C` strictly below 100 nM?
RESULT: F

QUERY: Is the reported IC50 for `COC(=O)c1c(-c2ccc(F)cc2)c(-c2ccncc2)c(N2CCN(CC3CC3)CC2)n1C` strictly below 100 nM?
RESULT: F

QUERY: Is the reported IC50 for `COC(=O)C(=O)c1c(-c2ccc(F)cc2)c(-c2ccncc2)c(N2CCNCC2)n1C` strictly below 100 nM?
RESULT: T

QUERY: Is the reported IC50 for `COC(=O)c1c(-c2ccc(F)cc2)c(-c2ccncc2)c(NCc2ccc(OC)cc2)n1C` strictly below 100 nM?
RESULT: T

QUERY: Is the reported IC50 for `OCCNCc1[nH]cc(-c2ccc(F)cc2)c1-c1ccncc1` strictly below 100 nM?
RESULT: F

QUERY: Is the reported IC50 for `CNC(=O)c1c(-c2ccc(F)cc2)c(-c2ccncc2)cn1C` strictly below 100 nM?
RESULT: F

QUERY: Is the reported IC50 for `COC(=O)c1c(-c2ccc(F)cc2)c(-c2ccncc2)c(-c2cccc(NC(C)=O)c2)n1C` strictly below 100 nM?
RESULT: T

QUERY: Is the reported IC50 for `COC(=O)c1c(-c2ccncc2)c(-c2ccc(F)cc2)c(C#CCCO)n1C` strictly below 100 nM?
RESULT: F

QUERY: Is the reported IC50 for `O=C1CCn2cc(-c3ccncc3)c(-c3ccc(F)cc3)c21` strictly below 100 nM?
RESULT: F

QUERY: Is the reported IC50 for COC(=O)C1Cn2cc(-c3ccncc3)c(-c3ccc(F)cc3)c2C1=O (configuration not stated) strictly below 100 nM?
RESULT: T

QUERY: Is the reported IC50 for `O=C1CCn2c(Br)c(-c3ccncc3)c(-c3ccc(F)cc3)c21` strictly below 100 nM?
RESULT: F

QUERY: Is the reported IC50 for `O=C1OCCn2cc(-c3ccncc3)c(-c3ccc(F)cc3)c21` strictly below 100 nM?
RESULT: F
